Field: pKd. Provide a value for each of the binders that follow.
Molecular target: T1, third WW domain of human NEDD4 (hNEDD4-WW3), unlabelled (human, UniProt P46934 834-878)
T1 construct: not shown: GST, N-terminal, cleaved; His tag, N-terminal, cleaved
T1 sequence (P46934 834-878): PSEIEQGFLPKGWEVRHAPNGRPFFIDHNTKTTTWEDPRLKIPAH
Experiment: ITC
Details: both partners purified
Just so you know, pKd here is -log10 of the concentration in molar units; reply with that number alone.

Prompt line: Data request, read-out pKd, for Ac-PPPYVEPTAP-NH2 (source: synthetic peptide, bought: SynBioSci Corporation) [HTLV1ter Late domain peptide]
Response line: 3.75

Prompt line: Try this binder too: DLWLPPPEYVPL [Rabies Late domain peptide]
Response line: 4.29

Prompt line: Same again, this time with MQYLNPPPYADH [Marburg Late domain peptide]
Response line: 4.29

Prompt line: Also, SDPQIPPPYVEP [HTLV1 Late domain peptide] please.
Response line: 4.21

Prompt line: Another: ILPTAPPEYMEA [Ebola Late domain peptide]
Response line: 3.83
